The reported measurements were obtained from patent US9809521B2.

- System: 4T1 cells
- PROTOCOL DESCRIPTION: Cell viability assay
- Format: cell-based, mouse
- CONDITION SUMMARY: Mus musculus, 4T1, read-out: IC50, 4T1 cell viability
pIC50: −log10 of the molar value.
MEASURED PROPERTY: pIC50

> print(dat)
                                   compound  measured.property  value.observed
1  CCCCC(C)(C)c1cc(O)c(C2CCC(C3CCCCC3)CC2)c(O)c1 (stereo not shown)              pIC50            6.08

---

- Tested on: U87 cells
- PROTOCOL DESCRIPTION: MTT cell proliferation assay
- CONDITION SUMMARY: read-out: IC50, U87; seven day treatment; 95% confidence limits in brackets
MEASURED PROPERTY: IC50 (nM)

> print(dat)
                                   compound  measured.property  value.observed
1  CCCCCc1cc(O)c2c(c1)OC(C)(C)[C@@H]1CCC(C)=C[C@@H]21 [THC, Δ^9-tetrahydrocannabinol]               IC50            1600
2  Cc1c(C(=O)c2cccc3ccccc23)c2cccc3c2n1[C@H](CN1CCOCC1)CO3               IC50             770

---

- System: U251 cells
- PROTOCOL DESCRIPTION: MTT cell proliferation assay
- CONDITION SUMMARY: Homo sapiens, U-251, 72 h, read-out: CBD IC50, U251
MEASURED PROPERTY: IC50 (nM)

> print(dat)
                              sample.smiles  measured.property  unit  value.observed
1  C=C(C)[C@@H]1CCC(C)=C[C@H]1c1c(O)cc(CCCCC)cc1O               IC50    nM             600

---

Catalogue of pIC50 values
- System: SF126 cells
- PROTOCOL DESCRIPTION: MTT cell proliferation assay
- CONDITION SUMMARY: read-out: IC50, SF126; seven day treatment; 95% confidence limits in brackets
pIC50: −log10 of the molar value.
MEASURED PROPERTY: pIC50

> print(dat)
                                   compound  measured.property  value.observed
1  C=C(C)[C@@H]1CCC(C)=C[C@H]1c1c(O)cc(CCCCC)cc1O              pIC50            6.14
2  CCCCCc1cc(O)c2c(c1)OC(C)(C)[C@@H]1CCC(C)=C[C@@H]21 [THC, Δ^9-tetrahydrocannabinol]              pIC50            6.05
3  Cc1c(C(=O)c2cccc3ccccc23)c2cccc3c2n1[C@H](CN1CCOCC1)CO3              pIC50            6.08

---

- Test system: MDA-MB231 cells
- PROTOCOL DESCRIPTION: Boyden chamber invasion assay
- Assay type: cell-based, human
- CONDITION SUMMARY: Homo sapiens, MDA-MB-231; Boyden chamber; confidence limits 110-610; read-out: IC50 for invasion
pIC50: −log10 of the molar value.
MEASURED PROPERTY: pIC50

> print(dat)
                              sample.smiles     assay.system  measured.property  value.observed
1  C=C(C)[C@@H]1CCC(C)=C[C@H]1c1c(O)cc(CCCCC)cc1O  MDA-MB231 cells              pIC50            6.59
